Reference for the values: the kinase profiling compilation of Christmann-Franck et al. (2016)

biological target: IGF1R (human); assay: Caliper, Mobility shift assay off-chip; conditions: compound 0.1 µM
measuredMetric: inhibition (%)
Kindly provide the numeric value in % only, without the unit symbol.

Cn1cc(-c2cnc3ccc4ccc(CS(=O)(=O)NC5CCCCC5)cc4c(=O)c3c2)cn1	-7.9

Quick one: inhibition of Cn1cc(-c2cnc3ccc4ccc(CS(=O)(=O)CCc5ccccn5)cc4c(=O)c3c2)cn1 ?
-23.8

Quick one: inhibition of O=c1c2cc(CS(=O)(=O)NCc3ccccn3)ccc2ccc2ncc(C3CCNCC3)cc12 ?
-2.7

Quick one: inhibition of CN(c1ccc2ccc3ncc(-c4cnn(C)c4)cc3c(=O)c2c1)S(=O)(=O)NCc1ccccn1 ?
-12.2

Quick one: inhibition of Cn1cc(-c2cnc3ccc4ccc(CS(=O)(=O)NCC5CCCCN5)cc4c(=O)c3c2)cn1 (configuration not stated) ?
4.9

Quick one: inhibition of Cn1cc(-c2cnc3ccc4ccc(CS(N)(=O)=O)cc4c(=O)c3c2)cn1 ?
-3.7

Quick one: inhibition of O=C(CCc1ccc2ccc3ncc(C4CCNCC4)cc3c(=O)c2c1)NCc1ccccn1 ?
-3
